- Tested on: human somatostatin receptor subtype 2 (Homo sapiens)
- Construct: expressed in transfected cells
- Sequence (P30874 whole entry): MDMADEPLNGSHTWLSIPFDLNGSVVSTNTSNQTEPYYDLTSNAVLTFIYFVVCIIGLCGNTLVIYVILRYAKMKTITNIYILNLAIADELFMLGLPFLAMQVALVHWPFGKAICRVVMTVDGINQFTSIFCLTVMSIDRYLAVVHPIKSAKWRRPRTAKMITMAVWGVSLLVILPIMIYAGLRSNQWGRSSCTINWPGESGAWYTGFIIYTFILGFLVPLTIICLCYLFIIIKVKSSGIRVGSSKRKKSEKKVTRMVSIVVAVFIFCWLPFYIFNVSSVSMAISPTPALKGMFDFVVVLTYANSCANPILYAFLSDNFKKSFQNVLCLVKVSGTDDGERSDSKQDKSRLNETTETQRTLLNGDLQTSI
- Protocol notes: Functional assay for SSTR2 agonists (HTRF cAMP)
- Assay type: cell-based
- Setup conditions: CHO-K1 cells stably expressing human SST2; NKH477-stimulated cAMP; 20 min at 37 C; read-out: hSST2 cAMP Avg EC50
Readout type: EC50 (nM)
Answers are plain numbers, in nM.

Some entries whose results are on file:
Ask | Name the recorded EC50 for `CC[C@H](C)[C@@H]([C@@H](CC(=O)N1CCC[C@H]1[C@H](OC)[C@@H](C)C(=O)N[C@H](C)[C@@H](O)c1ccccc1)OC)N(C)C(=O)[C@@H](NC(=O)[C@H](C(C)C)N(C)C(=O)OCc1ccc(NC(=O)[C@H](CCCNC(N)=O)NC(=O)[C@@H](NC(=O)CCCCC(=O)NCCNc2ncc(-c3cc(C)cc(F)c3)c(N3CCC(N)CC3)c2-c2nc3ccc(Cl)cc3[nH]2)C(C)C)cc1C(=O)NCC(=O)O)C(C)C` .
Reply | 0.11

Ask | What do you have for CC[C@H](C)[C@@H]([C@@H](CC(=O)N1CCCC1[C@H](OC)[C@@H](C)C(=O)N[C@H](C)[C@@H](O)c1ccccc1)OC)N(C)C(=O)[C@@H](NC(=O)[C@H](C(C)C)N(C)C(=O)OCc1ccc(NC(=O)[C@H](CCCNC(N)=O)NC(=O)[C@@H](NC(=O)CCOCCC(=O)N(C)CC(=O)NCCNc2ncc(-c3cc(C)cc(F)c3)c(N3CCC(N)CC3)c2-c2nc3ccc(Cl)cc3[nH]2)C(C)C)c(OC)c1)C(C)C (some centres unmarked) ?
Reply | 0.082

Ask | What do you have for CC[C@H](C)[C@@H]([C@@H](CC(=O)N1CCC[C@H]1[C@H](OC)[C@@H](C)C(=O)N[C@H](C)[C@@H](O)c1ccccc1)OC)N(C)C(=O)[C@@H](NC(=O)[C@H](C(C)C)N(C)C(=O)OCc1ccc(NC(=O)[C@H](CCCNC(N)=O)NC(=O)[C@@H](NC(=O)[C@@H](CS(=O)(=O)O)NC(=O)CCOCCC(=O)NCCNc2ncc(-c3cc(C)cc(F)c3)c(N3CCC(N)CC3)c2-c2nc3ccc(Cl)cc3[nH]2)C(C)C)cc1C(=O)NCCN)C(C)C [Compound 29] ?
Reply | 0.076

Ask | What do you have for `CC[C@H](C)[C@@H]([C@@H](CC(=O)N1CCC[C@H]1[C@H](OC)[C@@H](C)C(=O)N[C@H](C)[C@@H](O)c1ccccc1)OC)N(C)C(=O)[C@@H](NC(=O)[C@H](C(C)C)N(C)C(=O)OCc1ccc(NC(=O)[C@H](CCCNC(N)=O)NC(=O)[C@@H](NC(=O)CCOCCC(=O)NCCNc2ncc(-c3cc(C)cc(F)c3)c(N3CCC(N)CC3)c2-c2nc3ccc(Cl)cc3[nH]2)C(C)C)c(O[C@@H]2O[C@H](C(=O)N(C)CCS(=O)(=O)O)[C@@H](O)[C@H](O)[C@H]2O)c1)C(C)C` ?
Reply | 0.07

Proceeding to the next molecule to report its EC50.
Ask | Name the recorded EC50 for `CC[C@H](C)[C@@H]([C@@H](CC(=O)N1CCC[C@H]1[C@H](OC)[C@@H](C)C(=O)N[C@H](C)[C@@H](O)c1ccccc1)OC)N(C)C(=O)[C@@H](NC(=O)[C@H](C(C)C)N(C)C(=O)OCc1ccc(NC(=O)[C@H](C)NC(=O)[C@@H](NC(=O)CCOCCC(=O)NCCNc2ncc(-c3cc(C)cc(F)c3)c(N3CC[C@H]4NCCO[C@@H]4C3)c2-c2nc3ccc(Cl)cc3[nH]2)C(C)C)c(O[C@@H]2O[C@H](C(=O)O)[C@@H](O)[C@H](O)[C@H]2O)c1)C(C)C` .
Reply | 110
